Each recorded value in this set is attributed to patent US10676504B2.

- systemName: HDAC1 (Homo sapiens)
- Sequence (Q13547 whole entry): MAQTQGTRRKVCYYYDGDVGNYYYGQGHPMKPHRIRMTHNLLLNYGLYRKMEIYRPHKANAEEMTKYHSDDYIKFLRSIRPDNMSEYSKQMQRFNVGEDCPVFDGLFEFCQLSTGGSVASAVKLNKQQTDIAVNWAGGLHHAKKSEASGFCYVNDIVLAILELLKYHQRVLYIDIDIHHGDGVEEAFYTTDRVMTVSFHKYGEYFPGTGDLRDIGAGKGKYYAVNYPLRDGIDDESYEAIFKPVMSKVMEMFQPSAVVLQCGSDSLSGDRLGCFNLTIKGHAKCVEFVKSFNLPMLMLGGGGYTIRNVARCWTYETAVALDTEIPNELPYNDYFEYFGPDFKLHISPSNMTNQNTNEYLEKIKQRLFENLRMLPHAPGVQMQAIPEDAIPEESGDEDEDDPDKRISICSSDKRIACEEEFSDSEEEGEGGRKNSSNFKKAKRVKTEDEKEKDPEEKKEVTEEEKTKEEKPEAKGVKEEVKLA
propertyName: Ki (nM)

- CCCCCCCC(=O)SCC/C=C/[C@@H]1CC(=O)NCc2nc(cs2)C2=N[C@@](C)(CS2)C(=O)N[C@@H](C(C)C)C(=O)O1 [Largazole, largazole, reference compound]: 20

----------
- systemName: HDAC3 (Homo sapiens, UniProt O15379)
- Construct: The recombinant, full-length HDAC protein (BPS Biosciences) was incubated; purchased BPS Biosciences
- Sequence (O15379 whole entry): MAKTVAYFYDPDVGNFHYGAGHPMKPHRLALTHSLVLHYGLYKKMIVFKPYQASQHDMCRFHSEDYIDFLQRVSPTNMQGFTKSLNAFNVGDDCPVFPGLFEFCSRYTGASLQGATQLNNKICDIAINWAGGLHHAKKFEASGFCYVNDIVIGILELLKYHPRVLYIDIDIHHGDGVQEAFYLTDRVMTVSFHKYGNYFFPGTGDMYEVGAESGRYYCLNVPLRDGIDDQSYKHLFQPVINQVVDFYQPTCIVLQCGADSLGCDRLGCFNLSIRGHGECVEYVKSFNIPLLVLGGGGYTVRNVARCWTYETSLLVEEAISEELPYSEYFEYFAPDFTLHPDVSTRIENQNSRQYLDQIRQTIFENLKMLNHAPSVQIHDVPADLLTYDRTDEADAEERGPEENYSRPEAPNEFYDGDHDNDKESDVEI
- Sequence (Q9Y618 395-489 partner limits assumed): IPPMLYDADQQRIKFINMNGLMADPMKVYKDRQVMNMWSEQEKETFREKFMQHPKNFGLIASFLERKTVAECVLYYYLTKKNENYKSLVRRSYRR
- assayInfo: HDAC biochemical assay of P5-P12 (Table P1)
- experimentalConditions: Table P1
propertyName: IC50 (µM)

• CCCCCCCC(=O)SCCC=CC1CC(=O)NCc2cccc(n2)C2=NC(C)(CS2)C(=O)NC(C(C)C)C(=O)O1 (centres unmarked) [Compound P5, Depsipeptide Pyridyl “IN”] = 0.332
• CC(C)[C@@H]1NC(=O)[C@]2(C)CSC(=N2)c2cccc(n2)CNC(=O)C[C@@H](/C=C/CCS)OC1=O [Compound P6, Depsipeptide Pyridyl “IN” Thiol] = 0.00307
• CC(C)[C@@H]1NC(=O)[C@]2(C)CSC(=N2)c2cccc(n2)CNC(=O)C[C@@H](/C=C/CCS)NC1=O [Compound P10, Peptide Isostere Pyridyl “IN” Thiol] = 0.0425
• CC(C)[C@@H]1NC(=O)[C@]2(C)CSC(=N2)c2ccnc(c2)CNC(=O)C[C@@H](/C=C/CCS)NC1=O [Compound P12, Peptide Isostere Pyridyl “OUT” Thiol] = 0.0146
• CCCCCCCC(=O)SCCC=CC1CC(=O)NCc2cccc(n2)C2=NC(C)(CS2)C(=O)NC(C(C)C)C(=O)N1 (centres unmarked) [Compound P9, Peptide Isostere Pyridyl “IN”] = 0.332
